As shown below, each of these molecules has a reported melting point value.

Field: example entries. Status: answers known.
INSERT INTO results (molecule, metric_name, result) VALUES
  ('CCN1CCC(c2c[nH]c3ccc(NC(=O)c4ccco4)cc23)CC1', 'melting point', '178 to 179 °C'),
  ('CCCc1nc2c(N)nc3cccnc3c2n1C1(OC)CCCCC1', 'melting point', '187 to 188 °C'),
  ('N#Cc1cnn(-c2c(Cl)cc(C(F)(F)F)cc2Cl)c1C=CC(=O)NS(=O)(=O)Cc1ccccc1', 'melting point', '178 to 183 °C'),
  ('COc1nc(=O)c(Cc2ccc(C)nc2)c[nH]1', 'melting point', '145 to 147 °C'),
  ('O=c1[nH]c(NCCCOc2cccc(CN3CCCCC3)c2)ncc1[N+](=O)[O-]', 'melting point', '161 to 164 °C');

Enquiry: Give me measured melting point, please, for this molecule: O=c1oc(-c2c(F)cccc2Cl)nn1-c1ccccc1C(F)(F)F
Return: 109 to 110 °C

Enquiry: Give me measured melting point, please, for this molecule: COC(=O)c1sc2nc(C)c(Cl)c(=O)n2c1C
Return: 140 to 141 °C

Enquiry: Give me measured melting point, please, for this molecule: CN(CC(=O)c1ccc(N2CCOCC2)cc1)C(=O)OC(C)(C)C
Return: 87 to 89 °C

Enquiry: Give me measured melting point, please, for this molecule: C#C[C@]1(C)CCc2c(C)c(OC)c(C)c(C)c2O1
Return: 94 to 97 °C

Enquiry: Give me measured melting point, please, for this molecule: CCCCCCCCCCCCCC(=O)Oc1ccc([N+](=O)[O-])cc1OC(=O)CCCCCCCCCCCCC
Return: 58 to 60 °C

Enquiry: Give me measured melting point, please, for this molecule: COc1cc(O)cc(-c2cc3ccc(O)cc3o2)c1CC=C(C)C
Return: 93 to 94 °C

Enquiry: Give me measured melting point, please, for this molecule: C[C@@H]1Cc2ccsc2[C@H](C)N1CCNC(=O)c1ccc(C(F)(F)F)cc1 (relative stereo)
Return: 88 to 91 °C
